// data source = patent US20190330224A1

pIC50 values, listed per item
target: Fungal ACC2 (UniProt Q00955); conditions: read-out: Fungal ACC2 (IC50, in vitro ACC2 inhibition)
Sequence (Q00955 whole entry): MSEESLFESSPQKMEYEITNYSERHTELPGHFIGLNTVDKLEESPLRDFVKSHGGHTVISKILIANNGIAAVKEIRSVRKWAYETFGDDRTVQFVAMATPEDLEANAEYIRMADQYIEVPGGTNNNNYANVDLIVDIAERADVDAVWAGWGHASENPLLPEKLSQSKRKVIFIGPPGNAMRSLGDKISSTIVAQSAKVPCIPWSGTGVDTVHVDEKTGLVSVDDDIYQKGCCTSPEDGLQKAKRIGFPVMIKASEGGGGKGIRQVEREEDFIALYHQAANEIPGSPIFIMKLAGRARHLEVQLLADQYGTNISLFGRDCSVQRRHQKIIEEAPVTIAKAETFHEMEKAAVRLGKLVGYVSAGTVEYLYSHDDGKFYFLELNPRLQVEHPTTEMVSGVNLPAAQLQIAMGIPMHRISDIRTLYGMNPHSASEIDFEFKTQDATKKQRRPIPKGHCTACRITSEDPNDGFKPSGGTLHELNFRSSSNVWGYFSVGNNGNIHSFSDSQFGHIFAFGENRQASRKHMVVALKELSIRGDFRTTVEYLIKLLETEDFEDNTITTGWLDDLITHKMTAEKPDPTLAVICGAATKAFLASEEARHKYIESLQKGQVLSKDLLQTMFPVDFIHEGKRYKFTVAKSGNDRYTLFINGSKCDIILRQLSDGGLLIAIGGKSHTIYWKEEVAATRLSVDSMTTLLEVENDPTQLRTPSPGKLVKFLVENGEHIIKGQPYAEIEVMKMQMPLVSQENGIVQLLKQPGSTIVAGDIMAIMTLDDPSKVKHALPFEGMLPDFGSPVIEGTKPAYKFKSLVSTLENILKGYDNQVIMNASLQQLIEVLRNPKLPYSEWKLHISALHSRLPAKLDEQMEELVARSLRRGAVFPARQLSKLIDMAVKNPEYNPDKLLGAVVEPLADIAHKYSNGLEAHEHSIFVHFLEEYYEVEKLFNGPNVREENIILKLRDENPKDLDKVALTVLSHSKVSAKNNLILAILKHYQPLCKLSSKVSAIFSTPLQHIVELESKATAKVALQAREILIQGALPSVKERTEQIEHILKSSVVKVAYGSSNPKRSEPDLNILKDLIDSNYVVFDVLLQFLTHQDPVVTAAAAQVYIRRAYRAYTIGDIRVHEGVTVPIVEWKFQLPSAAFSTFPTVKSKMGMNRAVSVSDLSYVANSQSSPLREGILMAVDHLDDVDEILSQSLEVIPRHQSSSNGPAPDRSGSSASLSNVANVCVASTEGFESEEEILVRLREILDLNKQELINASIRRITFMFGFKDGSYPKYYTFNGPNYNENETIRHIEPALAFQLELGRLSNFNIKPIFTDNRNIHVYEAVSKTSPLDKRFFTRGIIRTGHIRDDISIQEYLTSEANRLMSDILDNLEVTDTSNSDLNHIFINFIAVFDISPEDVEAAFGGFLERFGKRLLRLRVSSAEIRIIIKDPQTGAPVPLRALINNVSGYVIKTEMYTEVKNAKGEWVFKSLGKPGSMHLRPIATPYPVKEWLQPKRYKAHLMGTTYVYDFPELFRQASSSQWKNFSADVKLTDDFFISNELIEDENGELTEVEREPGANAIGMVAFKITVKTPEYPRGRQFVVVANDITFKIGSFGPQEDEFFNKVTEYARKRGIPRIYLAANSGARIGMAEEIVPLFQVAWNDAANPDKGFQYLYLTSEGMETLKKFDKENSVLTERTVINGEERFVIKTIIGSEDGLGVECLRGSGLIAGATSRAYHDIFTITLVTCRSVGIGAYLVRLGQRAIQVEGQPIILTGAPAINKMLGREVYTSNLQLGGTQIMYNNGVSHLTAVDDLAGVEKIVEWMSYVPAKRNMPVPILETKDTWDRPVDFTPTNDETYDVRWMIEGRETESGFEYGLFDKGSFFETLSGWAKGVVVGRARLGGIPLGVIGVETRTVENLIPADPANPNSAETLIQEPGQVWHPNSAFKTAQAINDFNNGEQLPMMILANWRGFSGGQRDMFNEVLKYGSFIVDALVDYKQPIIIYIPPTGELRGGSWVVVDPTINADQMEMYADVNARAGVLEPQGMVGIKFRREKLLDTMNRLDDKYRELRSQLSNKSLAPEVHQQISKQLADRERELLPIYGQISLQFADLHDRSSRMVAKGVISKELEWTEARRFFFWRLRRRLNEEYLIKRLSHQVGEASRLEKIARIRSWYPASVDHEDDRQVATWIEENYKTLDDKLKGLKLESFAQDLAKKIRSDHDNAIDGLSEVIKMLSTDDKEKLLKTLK
pIC50: −log10 of the molar value.

{"compound": "COc1ccc(F)cc1C(=O)Cn1c(=O)n(C2CCN(C)C2=O)c(=O)c2c(C)c(-n3nccn3)sc21 (stereo in doubt) [Compound I-162]", "subjectOfTest": "Fungal ACC2 (UniProt Q00955)", "pIC50": "7.00 to 8.00"}
{"compound": "COc1ccc(F)cc1[C@H](Cn1c(=O)n([C@@H]2CCCNC2=O)c(=O)c2c(C)c(-n3nccn3)sc21)O[C@H]1CC[C@@H](O)CC1 [Compound I-174]", "subjectOfTest": "Fungal ACC2 (UniProt Q00955)", "pIC50": "8.70 to 9.15"}
{"compound": "COc1ccc(F)cc1[C@H](Cn1c(=O)n([C@@H]2CCN(C)C2=O)c(=O)c2c(C)c(-n3nccn3)sc21)O[C@H]1C[C@@H](O)C1 [Compound I-183]", "subjectOfTest": "Fungal ACC2 (UniProt Q00955)", "pIC50": "8.70 to 9.15"}
{"compound": "COc1ccc(F)cc1[C@H](Cn1c(=O)n([C@H]2CCCN(C)C2=O)c(=O)c2c(C)c(-n3nccn3)sc21)OCCO [Compound I-72]", "subjectOfTest": "Fungal ACC2 (UniProt Q00955)", "pIC50": "8.70 to 9.15"}
{"compound": "COCCO[C@@H](Cn1c(=O)n([C@]2(C)CCC(=O)N(C)C2)c(=O)c2c(C)c(-n3nccn3)sc21)c1cc(F)ccc1OC [Compound I-136]", "subjectOfTest": "Fungal ACC2 (UniProt Q00955)", "pIC50": "8.70 to 9.15"}
{"compound": "COCCO[C@@H](Cn1c(=O)n([C@]2(C)CCC(=O)NC2)c(=O)c2c(C)c(-n3nccn3)sc21)c1cc(F)ccc1OC [Compound I-132]", "subjectOfTest": "Fungal ACC2 (UniProt Q00955)", "pIC50": "8.70 to 9.15"}

====

pIC50: −log10 of the molar value.
The listing below reports pIC50 for compounds tested on UniProt Q00955.
readout: pIC50

{"compound": "COCCO[C@@H](Cn1c(=O)n(C2CCCN(C)C2=O)c(=O)c2c(C)c(-n3nccn3)sc21)c1cc(F)ccc1OC (stereo partly drawn) [Compound I-14]", "subjectOfTest": "UniProt Q00955", "readout": "pIC50", "measured": "8.00 to 8.70"}
{"compound": "COCCO[C@@H](Cn1c(=O)n([C@@]2(C)CCC(=O)NC2)c(=O)c2c(C)c(-n3nccn3)sc21)c1cc(F)ccc1OC [Compound I-134]", "subjectOfTest": "UniProt Q00955", "readout": "pIC50", "measured": "8.00 to 8.70"}
{"compound": "COc1ccc(F)cc1[C@H](Cn1c(=O)n([C@H]2CCNC2=O)c(=O)c2c(C)c(-n3nccn3)sc21)OCCO [Compound I-80]", "subjectOfTest": "UniProt Q00955", "readout": "pIC50", "measured": "8.70 to 9.15"}
{"compound": "COc1ccc(F)cc1[C@H](Cn1c(=O)n([C@@H]2CCN(C)C2=O)c(=O)c2c(C)c(-n3nccn3)sc21)OCCC(=O)O [Compound I-175]", "subjectOfTest": "UniProt Q00955", "readout": "pIC50", "measured": "8.70 to 9.15"}
{"compound": "COCCO[C@@H](Cn1c(=O)n([C@H]2CCNC2=O)c(=O)c2c(C)c(-n3nccn3)sc21)c1cc(F)ccc1OC [Compound I-25]", "subjectOfTest": "UniProt Q00955", "readout": "pIC50", "measured": "8.00 to 8.70"}
{"compound": "COc1ccc(F)cc1[C@H](Cn1c(=O)n([C@@]2(C)CCCN(C)C2=O)c(=O)c2c(C)c(-n3nccn3)sc21)OCCO [Compound I-131]", "subjectOfTest": "UniProt Q00955", "readout": "pIC50", "measured": "8.70 to 9.15"}

====

biological target: UniProt Q00955
readout: IC50

{"structureSmilesString": "COc1ccccc1[C@H](Cn1c(=O)n([C@@H]2CCCNC2=O)c(=O)c2c(C)c(-c3ncco3)sc21)OCCO", "subjectOfTest": "UniProt Q00955", "readout": "IC50", "measured": "0.7 to 2 nM"}
{"structureSmilesString": "COCCO[C@@H](Cn1c(=O)n([C@]2(C)CCNC2=O)c(=O)c2c(C)c(-n3nccn3)sc21)c1cc(F)ccc1OC", "subjectOfTest": "UniProt Q00955", "readout": "IC50", "measured": "> 1000 nM"}
{"structureSmilesString": "COc1ccccc1C(=O)Cn1c(=O)n([C@@H]2CCN(C)C2=O)c(=O)c2c(C)c(-n3nccn3)sc21", "subjectOfTest": "UniProt Q00955", "readout": "IC50", "measured": "10 to 100 nM"}
{"structureSmilesString": "COCCO[C@@H](Cn1c(=O)n([C@]2(C)CC(=O)N(C)C2)c(=O)c2c(C)c(-n3nccn3)sc21)c1cc(F)ccc1OC", "subjectOfTest": "UniProt Q00955", "readout": "IC50", "measured": "0.7 to 2 nM"}
{"structureSmilesString": "COCCO[C@@H](Cn1c(=O)n([C@]2(C)CCN(C)C2=O)c(=O)c2c(C)c(-n3nccn3)sc21)c1cc(F)ccc1OC", "subjectOfTest": "UniProt Q00955", "readout": "IC50", "measured": "> 1000 nM"}
{"structureSmilesString": "COCCO[C@@H](Cn1c(=O)n([C@@H]2CCN(C)C2=O)c(=O)c2c(C)c(-n3nccn3)sc21)c1cc(F)ccc1O", "subjectOfTest": "UniProt Q00955", "readout": "IC50", "measured": "2 to 10 nM"}

====

biological target: Human ACC2 (Homo sapiens)
Sequence (O00763 whole entry): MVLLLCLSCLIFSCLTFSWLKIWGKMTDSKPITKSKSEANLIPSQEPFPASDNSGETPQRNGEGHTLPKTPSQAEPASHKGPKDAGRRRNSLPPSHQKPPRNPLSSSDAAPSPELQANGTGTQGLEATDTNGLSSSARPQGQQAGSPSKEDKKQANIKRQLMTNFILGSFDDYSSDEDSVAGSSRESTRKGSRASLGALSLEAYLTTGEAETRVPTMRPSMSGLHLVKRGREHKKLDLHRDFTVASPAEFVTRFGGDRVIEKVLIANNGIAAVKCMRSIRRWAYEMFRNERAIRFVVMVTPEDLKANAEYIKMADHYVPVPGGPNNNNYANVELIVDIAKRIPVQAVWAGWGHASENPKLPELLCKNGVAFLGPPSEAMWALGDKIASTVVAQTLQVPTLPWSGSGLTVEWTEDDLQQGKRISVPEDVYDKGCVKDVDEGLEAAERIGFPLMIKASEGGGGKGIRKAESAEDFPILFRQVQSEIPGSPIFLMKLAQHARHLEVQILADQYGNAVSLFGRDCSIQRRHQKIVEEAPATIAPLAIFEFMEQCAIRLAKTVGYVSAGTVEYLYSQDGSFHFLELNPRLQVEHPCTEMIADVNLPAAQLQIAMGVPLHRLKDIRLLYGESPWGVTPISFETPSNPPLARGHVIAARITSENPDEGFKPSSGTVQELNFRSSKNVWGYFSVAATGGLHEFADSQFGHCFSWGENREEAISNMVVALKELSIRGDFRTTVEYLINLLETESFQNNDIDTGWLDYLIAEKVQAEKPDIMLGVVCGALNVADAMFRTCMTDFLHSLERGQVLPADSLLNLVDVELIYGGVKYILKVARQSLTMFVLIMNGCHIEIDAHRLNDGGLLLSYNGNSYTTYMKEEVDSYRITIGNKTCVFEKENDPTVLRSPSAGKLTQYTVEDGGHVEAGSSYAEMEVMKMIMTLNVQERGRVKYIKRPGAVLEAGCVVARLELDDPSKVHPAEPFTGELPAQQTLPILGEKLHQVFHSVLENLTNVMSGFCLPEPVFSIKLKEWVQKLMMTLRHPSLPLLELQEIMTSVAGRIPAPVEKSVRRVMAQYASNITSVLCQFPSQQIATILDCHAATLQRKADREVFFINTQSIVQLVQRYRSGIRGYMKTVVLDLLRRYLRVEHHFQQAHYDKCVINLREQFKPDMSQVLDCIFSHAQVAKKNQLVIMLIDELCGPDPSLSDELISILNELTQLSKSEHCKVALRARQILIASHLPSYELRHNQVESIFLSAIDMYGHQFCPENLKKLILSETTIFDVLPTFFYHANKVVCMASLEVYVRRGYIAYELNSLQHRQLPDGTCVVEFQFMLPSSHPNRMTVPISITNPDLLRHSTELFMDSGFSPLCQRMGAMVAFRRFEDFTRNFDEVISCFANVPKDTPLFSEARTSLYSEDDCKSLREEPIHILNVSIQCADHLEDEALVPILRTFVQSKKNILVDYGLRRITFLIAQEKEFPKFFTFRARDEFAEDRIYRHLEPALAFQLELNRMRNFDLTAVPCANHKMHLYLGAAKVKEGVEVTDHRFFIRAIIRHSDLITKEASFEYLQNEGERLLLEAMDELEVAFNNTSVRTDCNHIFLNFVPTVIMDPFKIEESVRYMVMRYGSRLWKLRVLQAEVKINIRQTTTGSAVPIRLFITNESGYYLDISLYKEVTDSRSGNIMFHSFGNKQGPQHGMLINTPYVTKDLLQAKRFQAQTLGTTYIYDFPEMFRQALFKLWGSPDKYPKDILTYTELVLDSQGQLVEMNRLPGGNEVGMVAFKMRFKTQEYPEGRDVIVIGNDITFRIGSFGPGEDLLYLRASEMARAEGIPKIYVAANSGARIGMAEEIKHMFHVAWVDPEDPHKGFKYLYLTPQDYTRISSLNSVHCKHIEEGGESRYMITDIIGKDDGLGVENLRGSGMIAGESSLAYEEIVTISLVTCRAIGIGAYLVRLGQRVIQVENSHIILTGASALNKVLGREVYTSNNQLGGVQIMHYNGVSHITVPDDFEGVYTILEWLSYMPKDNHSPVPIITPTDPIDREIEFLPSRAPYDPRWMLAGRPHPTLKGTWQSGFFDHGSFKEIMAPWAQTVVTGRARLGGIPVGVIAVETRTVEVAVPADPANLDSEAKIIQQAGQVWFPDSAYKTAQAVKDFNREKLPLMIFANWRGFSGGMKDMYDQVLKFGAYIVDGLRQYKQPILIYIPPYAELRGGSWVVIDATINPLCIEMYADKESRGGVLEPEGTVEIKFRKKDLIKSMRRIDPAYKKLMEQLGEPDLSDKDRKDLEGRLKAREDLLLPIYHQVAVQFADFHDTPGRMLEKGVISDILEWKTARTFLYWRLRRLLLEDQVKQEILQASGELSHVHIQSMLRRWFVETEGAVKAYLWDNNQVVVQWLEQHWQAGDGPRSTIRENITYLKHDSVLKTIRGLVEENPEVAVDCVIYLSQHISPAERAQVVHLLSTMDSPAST

{"compound": "COc1ccc(F)cc1[C@H](Cn1c(=O)n(C2CCCN(C)C2=O)c(=O)c2c(C)c(-n3nccn3)sc21)OC1CCOCC1 (stereo partly drawn)", "subjectOfTest": "Human ACC2 (Homo sapiens)", "IC50": "10 to 100 nM"}
{"compound": "COc1ccccc1[C@H](Cn1c(=O)n([C@@H]2CCN(C)C2=O)c(=O)c2c(C)c(-n3nccn3)sc21)OC", "subjectOfTest": "Human ACC2 (Homo sapiens)", "IC50": "10 to 100 nM"}
{"compound": "COc1ccc(F)cc1[C@H](Cn1c(=O)n([C@H]2CCCNC2=O)c(=O)c2c(C)c(-n3nccn3)sc21)OCCC#N", "subjectOfTest": "Human ACC2 (Homo sapiens)", "IC50": "10 to 100 nM"}
{"compound": "COc1ccc(F)cc1[C@H](Cn1c(=O)n([C@H]2CCN(C)C2=O)c(=O)c2c(C)c(-n3nccn3)sc21)OCCC(=O)O", "subjectOfTest": "Human ACC2 (Homo sapiens)", "IC50": "10 to 100 nM"}
{"compound": "COCCO[C@@H](Cn1c(=O)n([C@]2(C)CNC(=O)C2)c(=O)c2c(C)c(-n3nccn3)sc21)c1cc(F)ccc1OC", "subjectOfTest": "Human ACC2 (Homo sapiens)", "IC50": "10 to 100 nM"}
{"compound": "COCCO[C@@H](Cn1c(=O)n([C@H]2CCNC2=O)c(=O)c2c(C)c(-n3nccn3)sc21)c1cc(F)ccc1OC", "subjectOfTest": "Human ACC2 (Homo sapiens)", "IC50": "10 to 100 nM"}

====

target: UniProt Q00955
IC50 values, listed per item
readout: IC50

{"compound": "COc1ccc(F)cc1[C@H](Cn1c(=O)n([C@H]2CCCNC2=O)c(=O)c2c(C)c(-n3nccn3)sc21)O[C@H]1CC[C@@H](O)CC1 [Compound I-173]", "subjectOfTest": "UniProt Q00955", "readout": "IC50", "measured": "0.7 to 2 nM"}
{"compound": "COc1ccc(F)cc1[C@H](Cn1c(=O)n([C@]2(C)CCCN(C)C2=O)c(=O)c2c(C)c(-n3nccn3)sc21)OCCO [Compound I-129]", "subjectOfTest": "UniProt Q00955", "readout": "IC50", "measured": "0.7 to 2 nM"}
{"compound": "COc1ccc(F)cc1[C@H](Cn1c(=O)n([C@H]2CC(=O)N(C)C2)c(=O)c2c(C)c(-n3nccn3)sc21)OCCO [Compound I-95]", "subjectOfTest": "UniProt Q00955", "readout": "IC50", "measured": "2 to 10 nM"}
{"compound": "COc1ccc(F)cc1[C@H](Cn1c(=O)n([C@@H]2CCN(C)C2=O)c(=O)c2c(C)c(-n3cccn3)sc21)OCCC(=O)O [Compound I-179]", "subjectOfTest": "UniProt Q00955", "readout": "IC50", "measured": "2 to 10 nM"}
{"compound": "COc1ccc(F)cc1[C@H](Cn1c(=O)n([C@H]2CCN(C)C2=O)c(=O)c2c(C)c(-n3nccn3)sc21)OCCC(=O)O [Compound I-176]", "subjectOfTest": "UniProt Q00955", "readout": "IC50", "measured": "2 to 10 nM"}
{"compound": "COCCO[C@@H](Cn1c(=O)n(CCN2CCCCC2=O)c(=O)c2c(C)c(-n3nccn3)sc21)c1cc(F)ccc1OC [Compound I-98]", "subjectOfTest": "UniProt Q00955", "readout": "IC50", "measured": "2 to 10 nM"}
